assayNotes: n-Octanol-phosphate buffer partition co-efficient, log P of 99mTc(CO)3-labeled compound at 2 to 3 KBq after 1 min by gamma scintillation counting method
Type: physicochemical
Residues, ends and D or L forms follow the SMILES beside them. *: point of attachment. X1 = O=c1nc(N*)ccn1[C@@H]1O[C@H](CO)[C@@H](O)C1(F)F
// logP at 1 min lookup, one value per entry
Simply state the number, no unit and no words.

| molecule | logP at 1 min |
| --- | --- |
| NCCCC[C@H](NC(=O)CNC(=O)[C@H](Cc1cnc[nH]1)NC(=O)[C@H](CCCCN)NC(=O)[C@H](Cc1ccc(O)cc1)NC(=O)[C@@H](N)Cc1cnc[nH]1)C(=O)N[C@@H](CC(=O)Nc1ccn([C@@H]2O[C@H](CO)[C@@H](O)C2(F)F)c(=O)n1)C(N)=O (H-HYKHGKD(X1)-NH2) | -0.629 |

Then this molecule:
In plain terms, N=C(N)NCCC[C@H](NC(=O)[C@@H](N)Cc1cnc[nH]1)C(=O)NCC(=O)N[C@@H](CC(=O)Nc1ccn([C@@H]2O[C@H](CO)[C@@H](O)C2(F)F)c(=O)n1)C(N)=O (H-HRGD(X1)-NH2) has a documented logP at 1 min of -1.77
